assayExplanation: in vivo
testConditions: male, Sprague Dawley, rat, in vivo, sc, 1 mg/kg
propertyLabel: concentration at 0.167 h (ng/mL)
Field format: number, assumed ng/mL, no unit text.

Identify the reported concentration at 0.167 h for the following entry. CC(C)COc1ccc(CNC(=O)N(Cc2ccc(F)cc2)C2CCN(C(=O)CC[C@H](N)C(=O)O)CC2)cc1 [Compound 14a]
265

###

assayExplanation: Metabolic stability in rat liver microsomes
Type: in vitro ADME
testConditions: both sexes, rat, microsomes, pH 7.4; RLM, 1 μM, 0.50 mg protein per mL, NADPH
propertyLabel: half-life at 1 μM (min)
Field format: number, assumed min, no unit text.

Identify the reported half-life at 1 μM for the following entry. CC(CNC(=N)CNc1ccccc1)Oc1cccc(Cl)c1.O=CO (centres unmarked)
2.1
